- ASSAYED SYSTEM: T1, human α-CGRP 1-37 (WT) (human, C-terminal amide; N-terminal biotin when captured on the SA chip; 125I-labelled in the radioligand assay)
- T1 construct: also called α-human
- T1 peptide: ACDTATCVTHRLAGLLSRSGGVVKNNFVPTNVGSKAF
- PROTOCOL NOTES: Biacore, 37°C, Fab over CGRP on SA chip
OBSERVABLE: koff (s⁻¹)
Numbers only here, please. The scale is s⁻¹.

Consider the reported koff for these binders:
INSERT INTO results (binder, value) VALUES
  ('G1 variant M16 Fab (Fab, V domains shown, Fab; constant domains as m1) VH: EVQLVESGGGLVQPGGSLRLSCAASGFTFSNYWISWVRQAPGKGLEWVAEIRSESDASATHYAEAVKGRFTISRDNAKNSLYLQMNSLRAEDTAVYYCTSYFDYGLAIQNYWGQGTLVTVSS VL: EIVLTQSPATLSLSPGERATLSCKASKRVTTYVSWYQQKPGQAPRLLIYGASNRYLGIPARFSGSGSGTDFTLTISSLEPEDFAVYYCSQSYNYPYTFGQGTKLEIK', 0.000165),
  ('G1 variant M38 Fab (Fab, V domains shown, Fab; constant domains as m1) VH: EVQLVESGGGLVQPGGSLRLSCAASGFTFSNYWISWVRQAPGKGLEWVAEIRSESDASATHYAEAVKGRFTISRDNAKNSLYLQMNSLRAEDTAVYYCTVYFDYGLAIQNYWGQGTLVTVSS VL: EIVLTQSPATLSLSPGERATLSCKASKNVWTYVSWYQQKPGQAPRLLIYGASNRYLGIPARFSGSGSGTDFTLTISSLEPEDFAVYYCSQSYNYPYTFGQGTKLEIK', 0.000218);

Now turn to the next binder.
Looking up G1 variant M52 Fab (Fab, V domains shown, Fab; constant domains as m1; printed L561 read as L56I) VH: EVQLVESGGGLVQPGGSLRLSCAASGFTFSNYWISWVRQAPGKGLEWVAEIRSKSDNAATHYAEAVKGRFTISRDNAKNSLYLQMNSLRAEDTAVYYCTVYFDYGLAIQNYWGQGTLVTVSS VL: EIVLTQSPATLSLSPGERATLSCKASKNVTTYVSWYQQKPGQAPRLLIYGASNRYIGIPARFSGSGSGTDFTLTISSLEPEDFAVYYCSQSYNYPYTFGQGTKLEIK , I see its koff listed as 0.000281
